- System: MDA-MB-231
- measurement protocol: Cell proliferation assay
- Assay type: cell-based, human
- experimental context: Homo sapiens, MDA-MB-231, read-out: IC50 MDA-MB-231
property label: pIC50
pIC50 here: minus log base 10 of the concentration, concentration in moles per litre.

Please look at this molecule and report its pIC50: O=c1c(-c2ccc(O)cc2)coc2cc(O)cc(O)c12 [genistein, reference compound]
4.43
